Test system: HepG2 cells
Experiment: In-vitro cytotoxicity, ATP content
Type: cell-based
Details: Homo sapiens; Table 5B; HepG2
From the text: To evaluate in-vitro cytotoxicity of a compound of the invention, two different assay methods are employed. The assays evaluate cell viability by measuring ATP levels and cytotoxicity by measuring LDH release. […] It has been called the “molecular unit of currency” when it comes to intracellular energy transfer. An additional method to determine the viability of cells is to detect the integrity of the membrane that defines the cellular compartmentalization. […]
endpoint_name: EC50 (µM)
Numbers only, in µM.

q: Returns the measured EC50 for the input molecule. Input: C[C@H](CCC(=O)O)[C@H]1CC[C@H]2[C@@H]3CC[C@@H]4C[C@H](O)CC[C@]4(C)[C@H]3CC[C@]12C [LCA, lithocholic acid, reference compound]
a: 75

----------
Experiment: 1-octanol-water partition coefficient of ionized species
Type: physicochemical
Method: Physiochemical properties of a compound of the invention such as water solubility, critical micellar concentration, surface tension, and LogPA were determined using methods known in the art.
Sorting guide: entries reporting LogPA−: 1-octanol-water partition coefficient as ionized species beneath 2 go in the 1.0 pile, the rest go in the 0.0 pile.

The following compounds have reported results that may help.
compound	classification
CC[C@H]1[C@@H](O)[C@@H]2[C@H](CC[C@]3(C)[C@@H]([C@H](C)CCC(=O)O)CC[C@@H]23)[C@@]2(C)CC[C@@H](O)C[C@@H]12 [Compound A, reference compound]	0.0
CC[C@H]1[C@@H](O)C2C3C[C@H](O)[C@H]([C@H](C)CCC(=O)O)[C@@]3(C)CCC2[C@@]2(C)CC[C@@H](O)C[C@@H]12 (some centres unmarked) [Compound E, reference compound]	1.0
CC[C@H]1[C@@H](O)C2C3CCC(C(C)CC(C)C(=O)O)[C@@]3(C)[C@@H](O)CC2[C@@]2(C)CC[C@@H](O)C[C@@H]12 (stereo in doubt) [Compound C, reference compound]	1.0
CC[C@H]1[C@@H](O)C2C3CC[C@H]([C@H](C)Cc4nc(=O)o[nH]4)[C@@]3(C)C[C@H](O)C2[C@@]2(C)CC[C@@H](O)C[C@@H]12 (some centres unmarked) [Compound 6]	1.0

q: Lab note: confirm whether the reported LogPA−: 1-octanol-water partition coefficient as ionized species for this compound is below 2, equality not counting. compound: CC[C@H]1[C@@H](O)C2C3CC[C@H]([C@H](C)C[C@H](C)C(=O)O)[C@@]3(C)CCC2[C@@]2(C)CC[C@@H](O)C[C@@H]12 (some centres unmarked) [Compound D]
a: 0.0

----------
Target: CYP2D6 (Homo sapiens (Human), UniProt P10635)
Sequence (P10635 whole entry): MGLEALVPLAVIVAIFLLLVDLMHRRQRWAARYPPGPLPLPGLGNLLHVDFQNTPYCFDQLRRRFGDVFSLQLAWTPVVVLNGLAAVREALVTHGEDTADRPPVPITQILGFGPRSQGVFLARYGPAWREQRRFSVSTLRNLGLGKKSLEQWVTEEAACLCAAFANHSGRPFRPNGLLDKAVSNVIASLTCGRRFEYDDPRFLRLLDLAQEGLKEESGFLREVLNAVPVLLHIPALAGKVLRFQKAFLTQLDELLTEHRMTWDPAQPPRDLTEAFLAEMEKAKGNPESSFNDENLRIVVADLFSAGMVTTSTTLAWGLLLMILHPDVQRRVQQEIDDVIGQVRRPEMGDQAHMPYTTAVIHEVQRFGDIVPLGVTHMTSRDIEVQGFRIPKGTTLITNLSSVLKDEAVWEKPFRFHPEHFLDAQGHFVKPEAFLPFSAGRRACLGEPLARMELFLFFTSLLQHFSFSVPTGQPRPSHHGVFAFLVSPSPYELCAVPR
Experiment: CYP450 inhibition, fluorescent substrate, recombinant baculosomes
Format: in vitro ADME
pIC50: −log10 of the molar value.
For each entry below, report its pIC50 value.

molecule	measured_value
CC[C@H]1[C@@H](O)C2C3CC[C@H]([C@H](C)CCOS(=O)(=O)[O-])[C@@]3(C)C[C@H](O)C2[C@@]2(C)CC[C@@H](O)C[C@@H]12.[Na+] (some centres unmarked) [Compound 3, sodium salt]	< 5.00

Now consider a different molecule.
q: Returns the measured pIC50 for the input molecule. Input: CC[C@H]1[C@@H](O)C2C3CC[C@H]([C@H](C)CCCOS(=O)(=O)[O-])[C@@]3(C)C[C@H](O)C2[C@@]2(C)CC[C@@H](O)C[C@@H]12.[Na+] (some centres unmarked) [Compound 5, sodium salt]
a: < 5.00
